These data points were gathered from PubChem BioAssay (NCI).

tested on: NCI-H522 lung; assay: NCI tumour cell line growth inhibition, 48 h
READOUT LABEL: GI50

COMPOUND: O=C1OC(C(O)CO)C(=O)C1=O (centres undefined)
RESULT: 1850 µM
--
COMPOUND: Clc1ccc(C2=Nn3c(COc4ccccc4Cl)nnc3SC2)c(Cl)c1
RESULT: 22.6 µM
--
COMPOUND: C[C@@]12CC=C3c4nc(Nc5cccc(O)c5)sc4CC[C@]3(C)[C@H]1CC[C@]1(C)C(=O)CC[C@@H]21
RESULT: 2.14 µM
--
COMPOUND: COC(=O)[C@H](C)NC(=O)NC(=O)NC(=O)CI
RESULT: 1.96 µM
--
COMPOUND: Cc1cc(C(=O)Nc2ncc(Cc3cccc(C(F)(F)F)c3)s2)c2ccccc2n1
RESULT: 2.33 µM
--
COMPOUND: N=C1C(c2nc3ccccc3s2)=C(O)CN1c1cc(C(F)(F)F)ccc1Cl
RESULT: 9.49 µM
--
COMPOUND: COC(=O)C1=CNC=C(C(=O)OC)C1C1=CC(=O)C(C)=CC1=O
RESULT: 19.8 µM
--
COMPOUND: CCCCC(O)(c1ccc(Cl)cc1)C(CN1CCOCC1)c1ccc(Cl)cc1 (centres undefined)
RESULT: 7.26 µM
--
COMPOUND: NS(=O)(=O)c1ccc(N=Nc2c(O)[nH]c3ccc(-c4cnco4)cc23)cc1
RESULT: > 6.68 µM

###

tested on: UO-31 renal; experiment: NCI tumour cell line growth inhibition, 48 h; in the data active = GI50 below about 0.43 µM; inactive = the rest
Classes used: active, inactive

COMPOUND: CCCCC(O)(c1ccc(Cl)cc1)C(CN1CCOCC1)c1ccc(Cl)cc1 (centres undefined)
EXPERIMENTAL TARGET: UO-31 renal
CLASS ASSIGNMENT: inactive

COMPOUND: COc1nc2ccccc2cc1-c1nc2c(cnn2-c2ccc(Br)cc2)c(=O)[nH]1
EXPERIMENTAL TARGET: UO-31 renal
CLASS ASSIGNMENT: active

COMPOUND: CN1CCN(CCCOc2ccc3nc(Nc4ccc(Cl)c(C(F)(F)F)c4)ccc3c2)CC1
EXPERIMENTAL TARGET: UO-31 renal
CLASS ASSIGNMENT: inactive

COMPOUND: COc1ccc(-c2n[nH]nc2-c2cc(OC)c(OC)c(OC)c2)cc1
EXPERIMENTAL TARGET: UO-31 renal
CLASS ASSIGNMENT: active

COMPOUND: Cc1ccc(C(=O)CN(/C=C/C(=O)C(F)(F)F)c2ccc(S(N)(=O)=O)cc2)cc1
EXPERIMENTAL TARGET: UO-31 renal
CLASS ASSIGNMENT: inactive

COMPOUND: C=C1C(=O)O[C@H]2[C@H]1CC/C(COC(=O)C(=O)c1cn(Cc3ccccc3)c3ccccc13)=C\CC[C@@]1(C)O[C@@H]21
EXPERIMENTAL TARGET: UO-31 renal
CLASS ASSIGNMENT: inactive

COMPOUND: CC(C)(C)c1cc(C(C)(C)C)cc(S(=O)(=O)Nc2cc3ccccc3cc2C(=O)NCCN)c1
EXPERIMENTAL TARGET: UO-31 renal
CLASS ASSIGNMENT: inactive

COMPOUND: COc1cccc2c1C(=O)c1c(O)c3c(c(O)c1C2=O)C[C@@](O)(C(C)=O)C[C@@H]3OC1OC(C)C(O)C(N)C1Br (some centres undefined)
EXPERIMENTAL TARGET: UO-31 renal
CLASS ASSIGNMENT: active

COMPOUND: Cc1cc(S(=O)(=O)Nc2nnc(-c3ccccc3)c(-c3ccccc3)n2)c(SCC(N)=O)cc1Cl
EXPERIMENTAL TARGET: UO-31 renal
CLASS ASSIGNMENT: inactive

###

Items are presented alongside their recorded GI50.
tested on: HOP-62 NSCLC; assay: NCI tumour cell line growth inhibition, 48 h
READOUT LABEL: GI50

STRUCTURE AS SMILES: COC1=CC(=O)c2nc(-c3cccc(C)n3)[nH]c2C1=O
READOUT LABEL: GI50
RESULT: 18.7 µM

STRUCTURE AS SMILES: O=C(N/N=C/c1ccc(Cl)cc1)c1ccc(C(F)(F)F)nc1Nc1cccc(C(F)(F)F)c1
READOUT LABEL: GI50
RESULT: 2.47 µM

STRUCTURE AS SMILES: COC(=O)[C@@H](C)CNS(=O)(=O)N(c1cc(C(F)(F)F)cc(C(F)(F)F)c1)C1CCN(Cc2ccc(F)cc2)CC1
READOUT LABEL: GI50
RESULT: 15 µM

STRUCTURE AS SMILES: C=C1C(=O)O[C@H]2[C@H]1CC/C(COC(=O)C(=O)c1cn(Cc3ccccc3)c3ccccc13)=C\CC[C@@]1(C)O[C@@H]21
READOUT LABEL: GI50
RESULT: 2.03 µM

###

system: OVCAR-5 ovarian; experiment: NCI tumour cell line growth inhibition, 48 h; in the data active = GI50 below about 0.43 µM; inactive = the rest
Classes used: y (active), n (inactive)

STRUCTURE AS SMILES: COc1cc2c(c(OC)c1OC)-c1ccc(OC)c(=O)cc1[C@@H](NC(=O)c1ccccc1)CC2
CLASS ASSIGNMENT: y
//
STRUCTURE AS SMILES: CC(=O)[O-].CCN(CC)c1ccc(C=NCCN=Cc2ccc(N(CC)CC)cc2[O-])c([O-])c1.[Mn+3]
CLASS ASSIGNMENT: n
//
STRUCTURE AS SMILES: COc1ccc(-c2n[nH]nc2-c2cc(OC)c(OC)c(OC)c2)cc1
CLASS ASSIGNMENT: y
//
STRUCTURE AS SMILES: COC1=CC(=O)c2nc(-c3cccc(C)n3)[nH]c2C1=O
CLASS ASSIGNMENT: n
//
STRUCTURE AS SMILES: CCOC(=O)[C@@H](N)CCC(=O)N[C@@H](CSCc1ccccc1)C(=O)N[C@@H](C(=O)OCC)c1ccccc1
CLASS ASSIGNMENT: n
//
STRUCTURE AS SMILES: O=C(NC1=CC(=O)c2ccccc2C1=O)c1ccccc1
CLASS ASSIGNMENT: n
//
STRUCTURE AS SMILES: COc1cc2c3c(n(CCCNC(=O)OCC4c5ccccc5-c5ccccc54)c(=O)c2cc1OC)-c1cc2c(cc1/C3=C\CCNC(=O)OCC1c3ccccc3-c3ccccc31)OCO2
CLASS ASSIGNMENT: n
//
STRUCTURE AS SMILES: Clc1ccc(C2=Nn3c(COc4ccccc4Cl)nnc3SC2)c(Cl)c1
CLASS ASSIGNMENT: n

###

system: KM12 colon; experiment: NCI tumour cell line growth inhibition, 48 h
Items are presented alongside their recorded TGI.

COMPOUND: COC(CNC(=O)C(C)NC(=O)CCc1ccccc1)OC (stereo not drawn)
EXPERIMENTAL TARGET: KM12 colon
TGI: > 100 µM

COMPOUND: CCN(CC)C(=O)Cn1c(C)cc2ccccc21
EXPERIMENTAL TARGET: KM12 colon
TGI: > 100 µM

COMPOUND: C[C@]12CCC(=O)O[C@H]1CCCCO2
EXPERIMENTAL TARGET: KM12 colon
TGI: > 100 µM

COMPOUND: CN1c2ccc(Cl)cc2C(=O)NC1c1ccc([N+](=O)[O-])s1 (stereo not drawn)
EXPERIMENTAL TARGET: KM12 colon
TGI: 31.9 µM

COMPOUND: COc1ccc(/C=C/c2ccnc3ccccc23)c(OC)c1
EXPERIMENTAL TARGET: KM12 colon
TGI: > 10 µM

COMPOUND: C=CCCN1CCc2c([nH]c3ccccc23)C1C(=O)O (stereo not drawn)
EXPERIMENTAL TARGET: KM12 colon
TGI: > 100 µM

COMPOUND: N#CC(NC12CC3CC(CC(C3)C1)C2)c1ccccc1C(F)(F)F (stereo not drawn)
EXPERIMENTAL TARGET: KM12 colon
TGI: > 100 µM

COMPOUND: C=C1C(=O)O[C@@H]2/C=C(\C)CC/C=C(/COC(C)=O)C[C@@H](OC(C)=O)[C@@H]12
EXPERIMENTAL TARGET: KM12 colon
TGI: 34.3 µM

COMPOUND: COc1cc(/C=C(\C#N)C(N)=O)cc(Br)c1O
EXPERIMENTAL TARGET: KM12 colon
TGI: > 100 µM

COMPOUND: Cc1cccc(N2CCN(C(=S)c3ccc4c(c3)OCO4)CC2)c1
EXPERIMENTAL TARGET: KM12 colon
TGI: > 100 µM

COMPOUND: CC(=O)OC(/C=C/c1ccccc1)=C(OC(C)C)/C1=C(\c2ccccc2)SCCCSC1=O
EXPERIMENTAL TARGET: KM12 colon
TGI: > 100 µM

COMPOUND: O=C(O)c1ccc([N+](=O)[O-])c2cc3cnccc3nc12
EXPERIMENTAL TARGET: KM12 colon
TGI: 44.4 µM

COMPOUND: CCOCc1nc2c(OC)cc(-c3nc4ccc(N5CCN(C)CC5)cc4[nH]3)c(OC)c2[nH]1
EXPERIMENTAL TARGET: KM12 colon
TGI: > 100 µM

COMPOUND: O=C(NC1=CC(=O)c2ccccc2C1=O)c1ccccc1
EXPERIMENTAL TARGET: KM12 colon
TGI: 11.5 µM

COMPOUND: CC12C(=O)CC(CC1=O)C2(C)C
EXPERIMENTAL TARGET: KM12 colon
TGI: > 100 µM

COMPOUND: Cc1nc(-c2cc3cc([N+](=O)[O-])ccc3oc2=O)cs1
EXPERIMENTAL TARGET: KM12 colon
TGI: > 100 µM

COMPOUND: COc1ccccc1/C=C1\SC(=S)N(/C=C2\C(=O)Oc3ccccc3C2=O)C1=O
EXPERIMENTAL TARGET: KM12 colon
TGI: > 100 µM

COMPOUND: Cc1ccc(/C=C2\CCCc3ccccc3C2=O)cc1
EXPERIMENTAL TARGET: KM12 colon
TGI: 18.2 µM

COMPOUND: NP(=O)(Oc1c2occc2cc2ccc(=O)oc12)N(CCCl)CCCl (stereo not drawn)
EXPERIMENTAL TARGET: KM12 colon
TGI: > 100 µM

COMPOUND: CN1C/C=C\CCOc2cccc(c2)-c2ccnc(n2)Nc2cccc(c2)C1
EXPERIMENTAL TARGET: KM12 colon
TGI: 0.506 µM

COMPOUND: N#CC(NNC(=O)Cc1ccccc1)c1c(O)ccc2ccccc12 (stereo not drawn)
EXPERIMENTAL TARGET: KM12 colon
TGI: > 72.4 µM

COMPOUND: CC(C)=CCC/C(C)=C/C=C/C(C)=C/C=C/C(C)=C/C=C/C=C(C)/C=C/C=C(C)/C=C/[C@H]1C(C(C)(C)O)CC[C@]1(C)O (stereo partly drawn)
EXPERIMENTAL TARGET: KM12 colon
TGI: 70.6 µM

COMPOUND: CC1(C)SCc2nc3ncccc3n21
EXPERIMENTAL TARGET: KM12 colon
TGI: > 100 µM
